- assayComment: Oral bioavailability in Sprague-Dawley rat at 10 mg/kg measured after 24 hrs by LC-MS/MS analysis
- Format: ADME, organism-based
- conditionNotes: in vivo
valueKind: bioavailability (%)
Return type: number; implicit unit %.

QUERY: # bioavailability lookup, item Fc1ccc(C2(Cn3cncn3)COC(c3ccc(-c4ccccc4F)cc3)=N2)cc1 (stereo unspecified)
RESULT: 77.7

----------
- Test system: Pichia kudriavzevii
- assayComment: Antifungal activity against Candida krusei GIM2.1 assessed as inhibition of fungal growth by NCCLS protocol based method
- Type: functional
valueKind: MIC

{"columns": ["compound", "studySystem", "valueKind", "assayResult"],
 "data": [
  ["Fc1ccccc1-c1ccc(C2=NC(Cn3cncn3)(c3ccc(Cl)cc3)CO2)cc1 (centres undefined)", "Pichia kudriavzevii", "MIC", "0.25 µg/mL"]
]}

QUERY: I have this compound here, Clc1ccccc1-c1ccc(C2=NC(Cn3cncn3)(c3ccccc3)CO2)cc1 (centres undefined) , and I need its recorded MIC.
RESULT: > 64 µg/mL

QUERY: MIC lookup needed for Fc1ccc(C2(Cn3cncn3)COC(c3ccc(-c4ccccc4F)cc3)=N2)c(F)c1 (centres undefined) , thanks.
RESULT: 0.25 µg/mL

----------
- assayComment: Volume of distribution at steady state in Sprague-Dawley rat at 2 mg/kg, iv measured after 24 hrs by LC-MS/MS analysis
- Type: ADME, organism-based
- conditionNotes: in vivo, read-out: Vdss
valueKind: Vd (L/kg)
State just the number; it will be interpreted in L/kg.

QUERY: Look up Vd: Fc1ccc(C2(Cn3cncn3)COC(c3ccc(-c4ccccc4F)cc3)=N2)cc1 (stereo unspecified)
RESULT: 7.18

----------
Reported values of MIC for individual entries
- System: Pichia kudriavzevii
- assayComment: Antifungal activity against Candida krusei GIM2.1 assessed as inhibition of fungal growth by NCCLS protocol based method
- Format: functional

{"columns": ["molecule", "studySystem", "valueKind", "assayResult"],
 "data": [
  ["OC(Cn1cncn1)(Cn1cncn1)c1ccc(F)cc1F", "Pichia kudriavzevii", "MIC", "8 µg/mL"],
  ["Fc1cccc(-c2ccc(C3=NC(Cn4cncn4)(c4ccc(Cl)cc4)CO3)cc2)c1 (stereo not given)", "Pichia kudriavzevii", "MIC", "0.25 µg/mL"]
]}

QUERY: // returns reported MIC for input Fc1cccc(-c2ccc(C3=NC(Cn4cncn4)(c4cc(F)cc(F)c4)CO3)cc2)c1 (stereo not given)
RESULT: > 64 µg/mL

QUERY: Fill in the blank: the reported MIC of Fc1ccc(-c2ccc(C3=NC(Cn4cncn4)(c4ccccc4)CO3)cc2)cc1 (stereo not given) is ____.
RESULT: > 64 µg/mL

QUERY: // returns reported MIC for input N#Cc1ccc(-c2ccc(C3=NC(Cn4cncn4)(c4ccccc4)CO3)cc2)cc1 (stereo not given)
RESULT: > 64 µg/mL

----------
- assayComment: Half life in Sprague-Dawley rat at 2 mg/kg, iv measured up to 24 hrs by LC-MS/MS analysis
- Type: ADME, organism-based
- conditionNotes: in vivo
valueKind: half-life (min)
A number alone suffices; assume min.

QUERY: Item Fc1ccc(C2(Cn3cncn3)COC(c3ccc(-c4ccccc4F)cc3)=N2)cc1 (stereo unspecified) has what recorded half-life?
RESULT: 561

----------
A short record of pIC50 observed with Cytochrome P450 2C19 (Homo sapiens) follows.
Sequence (P33261 whole entry): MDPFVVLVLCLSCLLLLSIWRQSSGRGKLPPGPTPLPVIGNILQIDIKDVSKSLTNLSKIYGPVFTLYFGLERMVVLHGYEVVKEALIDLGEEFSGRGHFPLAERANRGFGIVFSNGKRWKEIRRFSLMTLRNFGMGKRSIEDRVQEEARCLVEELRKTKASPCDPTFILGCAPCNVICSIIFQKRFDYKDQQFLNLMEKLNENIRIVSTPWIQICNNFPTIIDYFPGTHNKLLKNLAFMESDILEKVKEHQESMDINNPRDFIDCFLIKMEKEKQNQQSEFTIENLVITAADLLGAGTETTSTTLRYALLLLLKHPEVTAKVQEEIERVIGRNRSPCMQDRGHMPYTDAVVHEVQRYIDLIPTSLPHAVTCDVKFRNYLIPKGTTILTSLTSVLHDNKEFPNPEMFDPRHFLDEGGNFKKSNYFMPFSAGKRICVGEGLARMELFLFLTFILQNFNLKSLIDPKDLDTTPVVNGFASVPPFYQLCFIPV
Value format note: pIC50 is -log10 of concentration (mol/L); just state the number.

{"columns": ["molecule", "studySystem", "assayResult"],
 "data": [
  ["Fc1ccc(C2(Cn3cncn3)COC(c3ccc(-c4ccccc4F)cc3)=N2)cc1 (configuration not stated)", "Cytochrome P450 2C19 (Homo sapiens)", 5.81]
]}

QUERY: Name the recorded pIC50 for Fc1ccc(C2(Cn3cncn3)COC(c3ccc(-c4cccc(F)c4)cc3)=N2)cc1 (configuration not stated) .
RESULT: 5.89
